test: OD615 S. cerevisiae growth inhibition, permissive medium, pilot counter-assay, permissive growth control for S. cerevisiae lifespan shortening project (AID 705); conditions: OD615, 24 h, at 10 µM, active compounds read high
Activity calls are given as the source filed them.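 Rule for the calls: active = growth inhibition above 25% in both replicates, a cutoff set 3 SD above the mean; inconclusive = above 25% in only one replicate; inactive = the rest.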
Would you kindly list growth inhibition for each of these molecules?

Lookup: growth inhibition lookup needed for `Cc1cc(-c2nnco2)c(C)n1-c1ccc(F)cc1` , thanks.
Found: -8.75% (inactive)

Lookup: Another: `COc1ccccc1NC(=O)Nc1ccc(Br)cn1`
Found: -10.3% (inactive)

Lookup: Another: C=CCSc1nc2c(c(=O)[nH]1)C(C(C)C)C(C#N)=C(N)O2 (stereo unspecified)
Found: 0.845% (inactive)

Lookup: Another: `Cc1cc(C)n(C(=O)c2ccc(NC(=O)C3CC3)cc2)n1`
Found: -8.57% (inactive)

Lookup: Another: `CC1(C)Oc2ccc3ccc(=O)oc3c2/C(=C/Nc2ccccn2)C1=O`
Found: -22.4% (inactive)

Lookup: Another: C=CCSC1=NC(N)=C(C#N)C2(CCCCC2)C1C(N)=O (stereo unspecified)
Found: -4.98% (inactive)

###

assay: inhibitors of the yeast RAM network, pilot screen, dse1pr::URA3 reporter, 5-FOA selection (AID 869);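 note: 0% = DMSO wells with no growth and 100% = 10 µM 1-NA-PP1 with full growth; RAM network block rescues cells from 5-FOA so hits raise OD615 growth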; settings: S. cerevisiae dse1pr::URA3 5-FOA growth, OD615, 2 d; at 10 µM; active compounds read high; strain carries analog-sensitive mutant Cbk1 kinase
Would you kindly list inhibition for each of these compounds?
Numbers only; they are read as %.

Lookup: inhibition lookup needed for CCOC(=O)C1C(=O)NC(SC)=C(C#N)C1c1ccccc1F (stereo not given) , thanks.
Found: -1

Lookup: Another: COc1ccccc1-c1nnc(NC(=O)C(C)SC2=NCCS2)s1 (stereo not given)
Found: -0.115

Lookup: Another: Cc1ccc(N(C(C)C(=O)O)S(=O)(=O)c2c(C)[nH]c(=O)[nH]c2=O)cc1 (stereo not given)
Found: 0.555

Lookup: Another: O=C1Nc2ccccc2C(O)(C(=O)NCc2ccc3c(c2)OCO3)N1c1ccccc1 (stereo not given)
Found: 0.54

Lookup: Another: `Cn1cc(SCC(=O)N2CCN(c3ccccc3)CC2)c2ccccc21`
Found: 1.52

Lookup: Another: `O=C(CN1CCOc2ccccc21)NCc1ccc(Cl)cc1`
Found: 0.665

Lookup: Another: `COc1ccccc1N1CCN(Cc2cc(Br)c(O)c3ncccc23)CC1`
Found: -0.8

Lookup: Another: `Cc1ccc(C)c(N2CCN(C(=O)CCS(=O)(=O)c3cccc4nonc34)CC2)c1`
Found: 1.31

Lookup: Another: `O=C(NCC1(c2ccccc2)CCOCC1)c1ccc(Br)o1`
Found: 0.365

Lookup: Another: O=C(CC1Oc2ccccc2NC1=O)NC1CCCC1 (stereo not given)
Found: 1.33

###

experiment: OD615 S. cerevisiae growth inhibition, permissive medium, pilot counter-assay, permissive growth control for S. cerevisiae lifespan shortening project (AID 705); settings: OD615, 24 h, at 10 µM, active compounds read high
Would you kindly list growth inhibition for each of these compounds?
Numbers only; they are read as %.

Lookup: growth inhibition lookup needed for CC1Cc2nc(SCC(=O)NCc3ccco3)n(Cc3ccccc3)c(=O)c2S1 (stereo not drawn) , thanks.
Found: -6.15

Lookup: Another: `CCc1cccc(OCC(=O)Nc2ccc(S(=O)(=O)Nc3onc(C)c3C)cc2)c1`
Found: -13.4

Lookup: Another: CC(c1ccccc1)C(CC(=O)O)C(=O)NC1CCCCC1 (stereo not drawn)
Found: -12.4

###

experiment: inhibitors of the yeast RAM network, pilot screen, dse1pr::URA3 reporter, 5-FOA selection (AID 869);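 note: 0% = DMSO wells with no growth and 100% = 10 µM 1-NA-PP1 with full growth; RAM network block rescues cells from 5-FOA so hits raise OD615 growth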; conditions: S. cerevisiae dse1pr::URA3 5-FOA growth, OD615, 2 d; at 10 µM; active compounds read high; strain carries analog-sensitive mutant Cbk1 kinase
Assign yes whenever inhibition does not fall below 2%; assign no whenever it does.

Lookup: Answer whether inhibition of `Cc1cccc(NC(=O)c2cccnc2)c1` is greater than or equal to 2%.
Found: no

Lookup: Another: Cc1c(C(=O)NCC2CCCO2)oc2ccc(S(=O)(=O)N3CCCCC3)cc12 (stereo unspecified)
Found: yes

Lookup: Another: `COc1cccc(-n2c(Cc3cc(=O)[nH]c(=O)[nH]3)nnc2SCC(=O)N2CCCCC2)c1`
Found: no

Lookup: Another: `Cc1cccc(NC(=O)Cn2cnc3sc(C)c(S(=O)(=O)N4CCC(C)CC4)c3c2=O)n1`
Found: yes

Lookup: Another: `O=S(=O)(c1cccc2cccnc12)N1CCN(Cc2ccc3c(c2)OCO3)CC1`
Found: no

Lookup: Another: CCn1cc(C2N3CC4(C)CN2CC(C)(C3)C4=O)c2ccccc21 (stereo unspecified)
Found: no

###

assay: OD615 S. cerevisiae growth inhibition, permissive medium, pilot counter-assay, permissive growth control for S. cerevisiae lifespan shortening project (AID 705); conditions: OD615, 24 h, at 10 µM, active compounds read high
Measurement Kind: growth inhibition (%)
Numbers only; they are read as %.

Lookup: growth inhibition lookup needed for CCN(CC)CCCN1C(=O)C(O)=C(C(=O)c2ccc(C)o2)C1c1cccs1 (configuration not stated) , thanks.
Found: 0.37

Lookup: Another: `CCn1c(N2CCC(C)CC2)nc2c1c(=O)n(C)c(=O)n2C`
Found: -10.5

Lookup: Another: CC1=C(C(=O)OCC(C)C)C(c2ccccc2Cl)NC(=O)N1C (configuration not stated)
Found: -4.34

Lookup: Another: `CN(C)CCCCCNCCCNC(=O)/C=N\O`
Found: -2.17

Lookup: Another: Cc1oc(-c2cccs2)nc1CS(=O)CC(=O)NC1CCCCCC1 (configuration not stated)
Found: 11.3

Lookup: Another: `CCOC(=O)NCCc1ccc(OC)cc1`
Found: -4.17

Lookup: Another: `O=C(NCCN1CCOCC1)c1ccc2c(c1)N(Cc1ccc(F)cc1)C(=O)CS2`
Found: -16.1

Lookup: Another: `CC(=O)Nc1ccc(S(=O)(=O)N2CCSCC2)cc1`
Found: -14.7

Lookup: Another: `COCCNC(=O)CN(c1cc(C(F)(F)F)ccc1Cl)S(C)(=O)=O`
Found: -2.77

Lookup: Another: `COCCNC(=O)c1cc(-c2ccc(Cl)c(Cl)c2)on1`
Found: -2.25

Lookup: Another: `Cn1c(C(=O)N2CCN(c3ccccc3F)CC2)cc2c(=O)n(C)c3ccccc3c21`
Found: -2.8

Lookup: Another: `Cc1cc(=O)[nH]c(SCc2cc(=O)n3nc(C)sc3n2)n1`
Found: 4.53

Lookup: Another: `COC(=O)c1c(NC(=O)CCN2CCOCC2)sc2c1CCCC2`
Found: -1.47

Lookup: Another: `O=C(CN1CCOc2ccccc21)NCc1ccc(Cl)cc1`
Found: -36.4

Lookup: Another: `CSc1cccc(NC(=O)CN(c2cc(C)ccc2C)S(C)(=O)=O)c1`
Found: -4.02

Lookup: Another: Cc1ccc(/C(O)=C2\C(=O)C(=O)N(CCN(C)C)C2c2ccccc2F)cc1 (configuration not stated)
Found: -10.5

Lookup: Another: `O=C(COC(=O)c1cc2ccccc2o1)c1ccccc1`
Found: -8.98

###

assay: growth suppression of beta-catenin knockout HCT116, pilot screen, human colon tumor cells (AID 823); details: CellTiter-Glo, 60 h, at 10 µM, active compounds read low;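 note: 0% = wells killed by 20 µM Hyamine and 100% = untreated DMSO cell wells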
Inconclusive results are not listed. The source made the active and inactive calls.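 Rule for the calls: active = cell viability at or below a set limit in both duplicate runs, the limit being the all-compound median minus 4 SD (cut at about 23% in these data, passing the limit was not always enough); inconclusive = no clear call, values can overlap the other calls; inactive = the rest.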
Would you kindly list viability for each of these compounds?

Lookup: viability lookup needed for Cc1ccc(NC(=O)C2CCCN2S(=O)(=O)c2ccc3c(c2)CCC(=O)N3)cc1Cl (stereo unspecified) , thanks.
Found: 81.8% (inactive)

Lookup: Another: `CCCCC(=O)Nc1ncc2c(n1)CC(C)(C)CC2=O`
Found: 96.1% (inactive)

Lookup: Another: `CCOc1ccc(NS(=O)(=O)c2ccc3[nH]c(=O)oc3c2)cc1`
Found: 101% (inactive)

Lookup: Another: COC(=O)C1CCCN1C(C(=O)NC1CCCCC1)c1ccc(Cl)cc1 (stereo unspecified)
Found: 82.7% (inactive)

Lookup: Another: `COC(=O)C1CCN(C(=O)c2ccc(Cl)c(S(=O)(=O)NCc3cccnc3)c2)CC1`
Found: 101% (inactive)

Lookup: Another: O=C(O)CC1C(=O)NCCN1CCCc1ccccc1 (stereo unspecified)
Found: 97.8% (inactive)

Lookup: Another: CCOCCCNC(=O)C(NC(=O)CC1NC(=O)NC1=O)c1ccc(Cl)cc1 (stereo unspecified)
Found: 107% (inactive)

Lookup: Another: `O=C(CSCC(=O)N1CCOCC1)Nc1nc(-c2ccc3c(c2)OCO3)cs1`
Found: 100% (inactive)

Lookup: Another: `NC(=O)CSc1nc2ccccc2n1-c1ccccc1`
Found: 99% (inactive)

Lookup: Another: `COc1cc(NC(=O)Cc2ccccc2)cc(OC)c1`
Found: 107% (inactive)

Lookup: Another: Cc1ccc(C2/C(=C(/O)c3ccc(Cl)cc3)C(=O)C(=O)N2CC2CCCO2)o1 (stereo unspecified)
Found: 95.1% (inactive)

Lookup: Another: `CCC(=O)N1CCc2cc(Br)cc(S(=O)(=O)NCCN3CCOCC3)c21`
Found: 101% (inactive)

Lookup: Another: `Cn1c(Cn2c(=O)sc3ccccc32)nnc1SCc1cccnc1`
Found: 96.6% (inactive)

Lookup: Another: `COc1ccc(NC(=O)CCCC2=NS(=O)(=O)c3ccccc3N2)cc1`
Found: 103% (inactive)

Lookup: Another: `CC(=O)Nc1nnc(SCC(=O)NC(C)(C)C)s1`
Found: 94.8% (inactive)

Lookup: Another: `CCCCCCSc1nc2c(c(=O)[nH]c(=O)n2C)n1C`
Found: 82% (inactive)
